experimental system: human serum albumin (HSA) (Homo sapiens)
Sequence (P02768 25-609): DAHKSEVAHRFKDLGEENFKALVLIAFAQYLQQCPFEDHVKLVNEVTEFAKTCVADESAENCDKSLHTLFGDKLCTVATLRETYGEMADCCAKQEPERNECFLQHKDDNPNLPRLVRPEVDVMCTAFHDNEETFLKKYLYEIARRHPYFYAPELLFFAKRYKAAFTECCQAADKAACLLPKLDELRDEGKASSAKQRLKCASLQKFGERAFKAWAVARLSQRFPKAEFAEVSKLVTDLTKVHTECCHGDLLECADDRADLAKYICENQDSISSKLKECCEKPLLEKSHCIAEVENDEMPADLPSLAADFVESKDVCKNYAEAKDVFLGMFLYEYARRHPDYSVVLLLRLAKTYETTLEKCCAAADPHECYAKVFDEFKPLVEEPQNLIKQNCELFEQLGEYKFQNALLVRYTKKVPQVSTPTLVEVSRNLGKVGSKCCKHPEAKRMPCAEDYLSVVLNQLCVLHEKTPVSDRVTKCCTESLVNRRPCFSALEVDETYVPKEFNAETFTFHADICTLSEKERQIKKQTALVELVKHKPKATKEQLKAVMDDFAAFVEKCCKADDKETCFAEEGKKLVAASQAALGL
assay comment: Protein binding on chemically bonded HSA column (Chiralpak-HSA)
condition label: remeasured in this study, pH 7.4
test readout: log K HSA

# compound, value
records = [
    ("C[C@]12CCC(=O)C=C1CC[C@@H]1[C@@H]2[C@@H](O)C[C@@]2(C)[C@H]1CC[C@]2(O)C(=O)CO [Hydrocortisone]", 2.59),
    ("CN(C)CCCN1c2ccccc2CCc2ccccc21", 5.59),
    ("Cc1c(Cl)cccc1Nc1ccccc1C(=O)O", 6.60),
    ("CN(C)CCCN1c2ccccc2Sc2ccc(Cl)cc21", 1.27),
    ("Cc1ncc([N+](=O)[O-])n1CCO", 0.72),
    ("C[C@]12C=CC(=O)C=C1CC[C@@H]1[C@@H]2C(=O)C[C@@]2(C)[C@H]1CC[C@]2(O)C(=O)CO", 0.42),
    ("C[C@H]1C[C@@H]2[C@H]([C@@H](O)C[C@@]3(C)[C@H]2CC[C@]3(O)C(=O)CO)[C@@]2(C)C=CC(=O)C=C12", 0.28),
    ("CC(=O)Nc1ccccc1 [Acetanilide]", 0.43),
]

We next turn to a different compound, shown below.
Lookup: // log K HSA lookup, key: CCCc1cc(=O)[nH]c(=S)[nH]1
Found: 3.21
